Tested on: MUTU-1 Burkitt lymphoma cell line (EBV+)
Experiment: cells
Details: Mutu-1, 24 h, read-out: MUTU-1 Cell Viability % 10 μM, 10 μM, 24 h
Quick reference: viability at 10 µM of the listed items.
Express the result in % but write the number alone.

Worked examples follow.
C/C(=C\C12c3ccccc3C(Cl)(c3ccccc31)C1C(=O)N(c3ccccc3)C(=O)C12)[N+](=O)[O-] (stereo not shown) [Compound 17g]; 78.5
O=C1C2C3c4ccccc4C(/C=C/[N+](=O)[O-])(c4ccccc43)C2C(=O)N1Cc1ccccc1 (stereo not shown) [Compound 17i]; 0.86

Given the entry N#CC(C#N)=CC12c3ccccc3C(c3ccccc31)C1C(=O)NC(=O)C12 (stereo not shown) [Compound 23e] , report its measured viability at 10 µM.
83.6

Given the entry CC/C(=C\C12c3ccccc3C(c3ccccc31)C1C(=O)N(Cc3ccccc3)C(=O)C12)[N+](=O)[O-] (stereo not shown) [Compound 17k] , report its measured viability at 10 µM.
94

* * *

Test: Viability of peripheral blood mononuclear cells (alamarBlue)
Type: cell-based
Conditions: human, peripheral blood mononuclear cells (PBMCs), 1 µM, read-out: viable PBMCs at 1 µM
Quick reference: viability at 24 h, 1 µM of the listed items.

Worked examples follow.
O=C1C2C3c4ccccc4C(/C=C/[N+](=O)[O-])(c4ccccc43)C2C(=O)N1CCCCCCN1C(=O)C2C3c4ccccc4C(/C=C/[N+](=O)[O-])(c4ccccc43)C2C1=O (stereo not drawn); 72 to 81%
O=C1C2C3c4ccccc4C(C=C[N+](=O)[O-])(c4ccccc43)C2C(=O)N1c1ccc(Cl)cc1 (stereo not drawn) [Compound 16b]; 72 to 81%

Given the entry COc1ccc(N2C(=O)C3C4c5ccccc5C(/C=C/[N+](=O)[O-])(c5ccccc54)C3C2=O)cc1 (stereo not drawn) [Compound 16c] , report its measured viability at 24 h, 1 µM.
72 to 81%

* * *

Quick reference: viability at 10 µM of the listed items.
System: MUTU-1 Burkitt lymphoma cell line (EBV+)
Assay: cells
Details: Mutu-1, 24 h, read-out: MUTU-1 Cell Viability % 10 μM, 10 μM, 24 h

COC(=O)C1CC2c3ccccc3C1(/C=C/[N+](=O)[O-])c1ccccc12 (stereo not shown) [Compound 19c]; 8.4%
OCC12c3ccccc3C(c3ccccc31)c1ccccc12 [Compound 20g]; 103%

Below: the item to evaluate.
Notebook entry, MUTU-1 Burkitt lymphoma cell line (EBV+) assay: viability at 10 µM of N/N=C/C12c3ccccc3C(Cl)(c3ccccc31)C1C(=O)NC(=O)C12 (stereo not shown) [Compound 23i] = ?
106%

* * *

Assay: HPLC stability study in phosphate buffers
Assay type: physicochemical
Settings: pH 4 phosphate buffer, read-out: half-life (t½) at pH 4 (converted)
observation type: half-life at 14.6 µg/mL (h)
Express the result in h but write the number alone.

Given the entry O=C1C2C3c4ccccc4C(C=C[N+](=O)[O-])(c4ccccc43)C2C(=O)N1c1ccccc1 (stereo not shown) [Compound 16a] , report its measured half-life at 14.6 µg/mL.
11

* * *

System: MUTU-1 Burkitt lymphoma cell line (EBV+)
Test: cells
Conditions: Mutu-1, 24 h, read-out: MUTU-1 Cell Viability % 10 μM, 10 μM, 24 h
observation type: viability at 10 µM (%)
Express the result in % but write the number alone.

O=C1C2C3c4ccccc4C(/C=C/[N+](=O)[O-])(c4ccccc43)C2C(=O)N1CCc1ccccc1 (centres unmarked) [Compound 17n]; 2
O=C1NC(=O)C2C1C1c3ccccc3C2(O)c2ccccc21 (centres unmarked) [Compound 21k]; 100
CC/C(=C\C12c3ccccc3C(c3ccccc31)C1C(=O)OC(=O)C12)[N+](=O)[O-] (centres unmarked) [Compound 13c]; 74.1
COC(=O)C1C2c3ccccc3C(/C=C/[N+](=O)[O-])(c3ccccc32)C1C(=O)OC (centres unmarked) [Compound 19e]; 10.7
O=C1C2C3c4ccccc4C(C=C[N+](=O)[O-])(c4ccccc43)C2C(=O)N1c1ccccc1 (centres unmarked) [Compound 16a]; 1.4
O=C(c1ccccc1)c1ccc(N2C(=O)C3C4c5ccccc5C(/C=C/[N+](=O)[O-])(c5ccccc54)C3C2=O)cc1 (centres unmarked) [Compound 16i]; 1.2
O=[N+]([O-])C=CC12c3ccccc3C(Cl)(c3ccccc31)c1ccccc12 [Compound 20d]; 0.34

Below: the item to evaluate.
Given the entry C/C(=C\C12c3ccccc3C(c3ccccc31)C1C(=O)N(Cc3ccccc3)C(=O)C12)[N+](=O)[O-] (centres unmarked) [Compound 17j] , report its measured viability at 10 µM.
85.6

* * *

Quick reference: apoptosis in MUTU-I at 0.5 µM of the listed items.
Tested on: MUTU-1 Burkitt's lymphoma cell line
Assay: FITC Annexin V/PI FACS analysis of apoptosis in MUTU-I cells
Format: cell-based
Details: 0.5 µM, 24 h

Worked examples follow.
COc1ccc(N2C(=O)C3C4c5ccccc5C(/C=C/[N+](=O)[O-])(c5ccccc54)C3C2=O)cc1 (stereo not shown) [Compound 16c]; > 90%
N#CC1CC2c3ccccc3C1(/C=C/[N+](=O)[O-])c1ccccc12 (stereo not shown) [Compound 19a]; > 90%

Given the entry O=C1NC(=O)C2C1C1(Cl)c3ccccc3C2(C=C[N+](=O)[O-])c2ccccc21 (stereo not shown) [Compound 13j] , report its measured apoptosis in MUTU-I at 0.5 µM.
> 90%

* * *

Test system: MUTU-1 Burkitt lymphoma cell line (EBV+)
Assay: cells
Settings: Mutu-1, 24 h, read-out: MUTU-1 Cell Viability % 10 μM, 10 μM, 24 h
Rule: viability at 10 µM below 70% gives criterion met, anything at or above gives criterion not met.

Worked cases, answers included:
O=C1C2C3c4ccccc4C(C=C[N+](=O)[O-])(c4ccccc43)C2C(=O)N1c1ccc(Cl)cc1 (stereo not shown) [Compound 16b]; criterion met
O=CC12c3ccccc3C(c3ccccc31)C1C(=O)OC(=O)C12 (stereo not shown) [Compound 21d]; criterion not met
O=CC12c3ccccc3C(c3ccccc31)C1C(=O)NC(=O)C12 (stereo not shown) [Compound 21e]; criterion not met
CCOC(=O)C1CC2c3ccccc3C1(/C=C/[N+](=O)[O-])c1ccccc12 (stereo not shown) [Compound 19b]; criterion met
N#CC1CC2c3ccccc3C1(/C=C/[N+](=O)[O-])c1ccccc12 (stereo not shown) [Compound 19a]; criterion met
N#C/C=C/C12c3ccccc3C(c3ccccc31)C1C(=O)NC(=O)C12 (stereo not shown) [Compound 23b]; criterion not met
COC(=O)c1ccc(N2C(=O)C3C4c5ccccc5C(/C=C/[N+](=O)[O-])(c5ccccc54)C3C2=O)cc1 (stereo not shown) [Compound 16h]; criterion met
O=C1C2C3c4ccccc4C(CC[N+](=O)[O-])(c4ccccc43)C2C(=O)N1c1ccccc1 (stereo not shown) [Compound 14c]; criterion not met

Query compound follows.
Hello, is viability at 10 µM of the following compound strictly smaller than 70%? C/C(=C\C12c3ccccc3C(Cl)(c3ccccc31)C1C(=O)OC(=O)C12)[N+](=O)[O-] (stereo not shown) [Compound 13e]
criterion not met

* * *

Tested on: MUTU-1 Burkitt lymphoma cell line (EBV+)
Conditions: 1 μM, 24 h
observation type: MUTU-1 Cell Viability % 1 μM

Worked examples follow.
O=C1C2C3c4ccccc4C(C=C[N+](=O)[O-])(c4ccccc43)C2C(=O)N1c1ccccc1 (centres unmarked) [Compound 16a]; 10.3%
O=C1C2C3c4ccccc4C(/C=C/[N+](=O)[O-])(c4ccccc43)C2C(=O)N1CO (centres unmarked) [Compound 13n]; 0%
CN1C(=O)C2C3c4ccccc4C(/C=C/[N+](=O)[O-])(c4ccccc43)C2C1=O (centres unmarked) [Compound 13m]; 0%
O=C1NC(=O)C2C1C1(Cl)c3ccccc3C2(C=C[N+](=O)[O-])c2ccccc21 (centres unmarked) [Compound 13j]; 0.70%

Below: the item to evaluate.
Notebook entry, MUTU-1 Burkitt lymphoma cell line (EBV+) assay: MUTU-1 Cell Viability % 1 μM of O=C1C2C3c4ccccc4C(/C=C/[N+](=O)[O-])(c4ccccc43)C2C(=O)N1CCCCCCN1C(=O)C2C3c4ccccc4C(/C=C/[N+](=O)[O-])(c4ccccc43)C2C1=O (centres unmarked) [Compound 15] = ?
4.5%

* * *

Tested on: DG-75 Burkitt lymphoma cell line (EBV−, chemoresistant)
Conditions: 10 μM, 48 h
observation type: DG-75 Cell Viability % 10 μM

CC(=O)O[C@H]1C(=O)[C@@]2(C)[C@H]([C@H](OC(=O)c3ccccc3)[C@]3(O)C[C@H](OC(=O)[C@H](O)[C@@H](NC(=O)c4ccccc4)c4ccccc4)C(C)=C1C3(C)C)[C@]1(OC(C)=O)CO[C@@H]1C[C@@H]2O [Taxol, taxol, reference compound]; 9.9%
O=[N+]([O-])/C=C/c1c2ccccc2cc2ccccc12 [Compound 12a, (E)-9-(2-nitrovinyl)anthracene]; 14.0%
N/N=C/C12c3ccccc3C(Cl)(c3ccccc31)C1C(=O)NC(=O)C12 (stereo not shown) [Compound 23i]; 18.9%

Below: the item to evaluate.
Given the entry N#C/C=C/C12c3ccccc3C(c3ccccc31)C1C(=O)NC(=O)C12 (stereo not shown) [Compound 23b] , report its measured DG-75 Cell Viability % 10 μM.
54.1%
